Kindly supply the reported growth values for the records listed here.
- Test system: HCT-116 colon
- procedureSummary: NCI-60 one-dose screen, 48 h (100 = growth as untreated, 0 = no growth, -100 = all killed)
- conditionDescription: 10 µM unless noted
The panel holds about 83,000 compounds, 20% with a hit somewhere; the sample as a whole holds those more often.
Enter your answer as a number in %; do not include the unit.

Lookup result for CCCCCc1c(C)[nH]c(/C=C2\N=C(c3ccc[nH]3)C=C2CC)c1C ; measured growth: -95.4

Lookup result for CCCCCCCCNC(C)C(O)c1ccc(SC(C)C)cc1 (centres undefined) ; measured growth: -96.9

Lookup result for O=c1cc(N2CCOCC2)oc2c(-c3ccc4c(c3)OCCO4)csc12 ; measured growth: 14.4

Lookup result for CCCCNCC(O)c1cc(-c2ccc(C(F)(F)F)cc2)nc(-c2ccc(C(F)(F)F)cc2)c1 (centres undefined) ; measured growth: -88.5
